pEC50 for assorted compounds
Tested on: MT4
assay.info: Effective dose of compound required to inhibit replication of human immunodeficiency virus type 1 in MT-4 cells
Type: functional
measurement.context: read-out: ED50 (the source's name)
pEC50: −log10 of the molar value.
readout.name: pEC50

{"compound": "Cc1cc(NS(=O)(=O)c2ccc(N)cc2)no1", "measurement.qualifier": "<", "measured": 4.10}
{"compound": "CC(C)[C@H](C)C(=O)NC(=O)[C@H](O)[C@H](O)[C@@H](O)[C@@H](Oc1ccccc1)C(=O)NC1c2ccccc2C[C@@H]1O (some centres undefined)", "measurement.qualifier": "=", "measured": 6.92}
{"compound": "CCO[C@@H](C(=O)NC(=O)[C@@H](C)C(C)C)[C@H](O)[C@@H](O)[C@@H](O)C(=O)NC(=O)[C@@H](C)C(C)C", "measurement.qualifier": "<", "measured": 3.72}
{"compound": "CC(C)[C@H](C)C(=O)NC(=O)[C@H](O)[C@H](O)[C@@H](O)[C@@H](Oc1ccc(-c2ccccn2)cc1)C(=O)NC(=O)[C@@H](C)C(C)C", "measurement.qualifier": "=", "measured": 6.19}

* * *

System: MT4
assay.info: Effective dose of compound required to inhibit replication of human immunodeficiency virus type 1 in MT-4 cells
Type: functional
measurement.context: read-out: ED50 (the source's name)
EC50 for assorted compounds

{"compound": "CC(NO)c1cccc(CN2[C@H](COc3ccccc3)[C@H](O)[C@@H](O)[C@@H](COc3ccccc3)N(Cc3cccc(C(C)NO)c3)S2(=O)=O)c1 (stereo partly specified)", "EC50, nM": 2900}
{"compound": "CC(C)(C)NC(=O)[C@@H]1C[C@@H]2CCCC[C@@H]2CN1C[C@@H](O)[C@H](Cc1ccccc1)NC(=O)[C@H](CC(N)=O)NC(=O)c1ccc2ccccc2n1", "EC50, nM": 10}
{"compound": "CC(C)[C@H](C)C(=O)NC(=O)[C@H](O)[C@H](O)[C@@H](O)[C@@H](Oc1ccc(C2=C(O)C(=O)CCC2)cc1)C(=O)NC(=O)[C@@H](C)C(C)C", "EC50, nM": 5600}
{"compound": "CC(C)CN(C[C@@H](O)[C@H](Cc1ccccc1)NC(=O)O[C@H]1CCOC1)S(=O)(=O)c1ccc(N)cc1", "EC50, nM": 80}
{"compound": "CC(C)(C)NC(=O)c1ccccc1NC[C@@H](O)[C@H](Cc1ccccc1)NC(=O)[C@H](CC(N)=O)NC(=O)OCc1ccccc1", "EC50, nM": 3310}
{"compound": "Cc1cccc(C)c1OCC(=O)N[C@@H](Cc1ccccc1)[C@@H](O)C[C@H](Cc1ccccc1)NC(=O)[C@H](C(C)C)N1CCCNC1=O [LOPINAVIR]", "EC50, nM": 10}
{"compound": "O=S1(=O)N(Cc2ccc(CO)cc2)[C@H](COc2ccccc2)[C@H](O)[C@@H](O)[C@@H](COc2ccccc2)N1Cc1ccc(CO)cc1", "EC50, nM": 1550}
{"compound": "COC(=O)N[C@H](C(=O)N[C@@H](Cc1ccccc1)[C@@H](O)CN(Cc1ccc(-c2ccccn2)cc1)NC(=O)[C@@H](NC(=O)OC)C(C)(C)C)C(C)(C)C [ATAZANAVIR]", "EC50, nM": 6}
{"compound": "CC(C)(C)NC(=O)c1ccccc1NC[C@H](O)[C@H](Cc1ccccc1)NC(=O)[C@H](CC(N)=O)NC(=O)c1ccc2ccccc2n1", "EC50, nM": 10100}
{"compound": "Cc1c(O)cccc1C(=O)N[C@@H](CSc1ccccc1)[C@H](O)CN1C[C@H]2CCCC[C@H]2C[C@H]1C(=O)NC(C)(C)C", "EC50, nM": 20}
{"compound": "CC(C)[C@H](C)C(=O)NC(=O)[C@H](O)[C@@H](O)[C@H](O)[C@@H](Oc1ccccc1)C(=O)NC(=O)[C@@H](C)C(C)C", "EC50, nM": 22900}

meta.source: ChEMBL document CHEMBL1138847
